Hi there, I'd appreciate the recorded IC50 for every entry that follows.
Molecular target: BuChE (Homo sapiens, UniProt P06276)
Construct: BuChE (3.4 U/mg) was obtained from human plasma; from tissue; host or cells: human plasma
Sequence (P06276 29-602): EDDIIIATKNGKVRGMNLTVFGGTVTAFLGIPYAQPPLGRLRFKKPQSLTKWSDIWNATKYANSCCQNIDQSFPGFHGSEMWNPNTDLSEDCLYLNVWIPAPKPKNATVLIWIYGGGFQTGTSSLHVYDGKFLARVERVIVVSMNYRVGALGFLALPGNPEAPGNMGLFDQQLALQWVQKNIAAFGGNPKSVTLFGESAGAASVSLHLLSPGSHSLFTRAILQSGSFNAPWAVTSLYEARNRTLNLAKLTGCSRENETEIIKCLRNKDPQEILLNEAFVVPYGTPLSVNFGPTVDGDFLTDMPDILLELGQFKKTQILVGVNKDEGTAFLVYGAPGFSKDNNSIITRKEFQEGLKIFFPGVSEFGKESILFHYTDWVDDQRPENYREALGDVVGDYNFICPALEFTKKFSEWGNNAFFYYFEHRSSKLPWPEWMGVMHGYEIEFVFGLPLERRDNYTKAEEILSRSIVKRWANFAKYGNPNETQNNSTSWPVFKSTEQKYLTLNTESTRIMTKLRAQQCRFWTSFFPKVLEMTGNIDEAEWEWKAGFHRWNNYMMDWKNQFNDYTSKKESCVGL
Test: biochemical
Details: BuChE from human plasma; read-out: IC50 (μM) BuChE
Experimental: To measure in vitro AChE/BuChE activity, modified Ellman's method[27–30] was performed using a 96-well plate reader (BioTek ELx808). AChE (0.5 U/mg) was extracted from rat cortex while BuChE (3.4 U/mg) was obtained from human plasma. Each well contained 50 μl potassium phosphate buffer (KH2PO4/K2HPO4, 0.1 M, pH 8.0), 25 μl test compounds and 25 μl enzyme. […] They were pre-incubated for 60 min at 37 °C, and then 125 μl 5,5′-dithiobis-2-nitrobenzoic acid (DNTB, 3 mM in buffer) was added. […]

Record IC50 per entry; entries follow.
1. COc1ccc(-c2coc3cc(OCCCN4CCCCC4)ccc3c2=O)cc1
2. COc1ccc(-c2coc3cc(OCCN4CCCCC4)cc(O)c3c2=O)cc1
3. COc1ccc(-c2coc3cc(OCCN4CCCCC4C)ccc3c2=O)cc1 (stereo not shown)
4. COc1ccc(-c2coc3cc(OCCCCN4CCCCC4)ccc3c2=O)cc1

stdout:
1: 23.2 µM; 2: 4.12 µM; 3: 3.37 µM; 4: 11.1 µM
